Source listed as paper PMC7722354.

Test system: Trypanosoma cruzi
PROCEDURE SUMMARY: T. cruzi growth inhibition on MRC-5 cells (LMPH)
Format: cell-based
EXPERIMENTAL CONTEXT: MRC5
Readings of pIC50 for the listed compounds
Keep it numeric: pIC50 is minus log10 of the concentration in mol/L.

[in] Reported pIC50 for O=[N+]([O-])c1cn2c(n1)OC(COc1cccc(-c3ccc(F)nc3F)n1)CC2 (stereo not drawn) : what is it?
[out] 6.89

[in] Another: O=[N+]([O-])c1cn2c(n1)OC(COCc1ccc(-c3ccc(F)cc3)cc1)CC2 (stereo not drawn)
[out] 6.28

[in] Another compound to look at: CC1(COc2ccc(-c3ccc(F)nc3F)nc2)CCn2cc([N+](=O)[O-])nc2O1 (stereo not drawn)
[out] 6.42

[in] Check CC1(CN2CCN(c3ccc(F)cc3)CC2)CCn2cc([N+](=O)[O-])nc2O1 (stereo not drawn) too.
[out] 5.89

[in] // next record O=[N+]([O-])c1cn2c(n1)OC(COc1cccc(-c3ccc(F)cc3F)n1)CC2 (stereo not drawn)
[out] 6.64

[in] How about this compound: O=[N+]([O-])c1cn2c(n1)OC(COc1cnc(-c3ccc(F)cc3)nc1)CC2 (stereo not drawn)
[out] 6.59
